Quick reference for IC50 among some molecules
- Test system: mouse breast cancer 4T1 cells
- Method Notes: MTT in-vitro anti-tumor activity test, 4T1
- Condition Description: read-out: IC50 cytotoxic effect on 4T1; MTT, 48 hours
Measured Endpoint: IC50 (µM)

Molecule	Tested On	Result Number
COc1ccc2ccc(=O)oc2c1CC=C(C)C [Osthol, osthol]	mouse breast cancer 4T1 cells	67.4
CC(C)=CCCC(C)(O)[C@H]1CC[C@]2(C)[C@@H]1[C@H](O)C[C@@H]1[C@@]3(C)CC[C@H](O)C(C)(C)[C@@H]3CC[C@]12C (stereo in doubt) [Protopanaxadiol, protopanoxadiol]	mouse breast cancer 4T1 cells	30.9
CC(C)=CCC[C@]1(C)CC[C@]2(C)[C@H]3CC[C@@]4(C)[C@@H](CCC(=O)[C@@H]4C)[C@]3(C)CC[C@@]2(C)C1 [Shionon, shionon]	mouse breast cancer 4T1 cells	82.4
